- target.or.test.system: PD-L1 (Homo sapiens, UniProt Q9NZQ7)
- Construct: hPDL1(19-239)-TVMV-His; made in house; host or cells: HEK293T
- Sequence (Q9NZQ7 with tags, fused parts or gaps): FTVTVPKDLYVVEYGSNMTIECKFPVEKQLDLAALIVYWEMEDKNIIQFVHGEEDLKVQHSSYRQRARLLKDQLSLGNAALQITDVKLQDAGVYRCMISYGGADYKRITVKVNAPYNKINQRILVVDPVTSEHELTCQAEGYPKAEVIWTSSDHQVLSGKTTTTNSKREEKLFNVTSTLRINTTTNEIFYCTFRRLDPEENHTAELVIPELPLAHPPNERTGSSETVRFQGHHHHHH
- assay.remarks: PD-1/PD-L1 Homogenous Time-Resolved Fluorescence (HTRF) binding assay (PD-1-Ig/PD-L1-His)
- details: inhibition of PD-1-Ig binding to PD-L1-TVMV-His; value given as range class; read-out: HTRF IC50
pIC50: −log10 of the molar value.
reported.endpoint: pIC50

{"columns": ["query.smiles", "result"],
 "data": [
  ["CCCC[C@H]1C(=O)N(C)[C@@H](CCCC)C(=O)N[C@@H](CCCNC(=N)N)C(=O)N[C@H](C(=O)NCC(=O)N[C@@H](Cc2cn(CC[C@H](NC(=O)CCCCCCCCCCCCCCC(=O)O)C(=O)O)nn2)C(N)=O)CSCC(=O)N[C@@H](Cc2ccc(O)cc2)C(=O)N(C)[C@@H](C)C(=O)N[C@@H](CC(N)=O)C(=O)N2CCC[C@H]2C(=O)N[C@@H](CN)C(=O)N[C@@H](CC(C)C)C(=O)N2C[C@H](O)C[C@H]2C(=O)N[C@@H](Cc2c[nH]c3ccccc23)C(=O)N[C@@H](CO)C(=O)N[C@@H](Cc2c[nH]c3ccccc23)C(=O)N1C", "8.00 to 9.52"]
]}

Continue with the next compound.
Value lookup for pIC50; key = CCCC[C@H]1C(=O)N(C)[C@@H](CCCC)C(=O)N[C@@H](CCC(=O)O)C(=O)N[C@H](C(=O)NCC(=O)N[C@@H](Cc2cn(CC[C@H](NC(=O)CCCCCCCCCCCCCCC(=O)O)C(=O)O)nn2)C(N)=O)CSCC(=O)N[C@@H](Cc2ccc(O)cc2)C(=O)N(C)[C@@H](C)C(=O)N[C@@H](CC(N)=O)C(=O)N2CCC[C@H]2C(=O)N[C@@H](CN)C(=O)N[C@@H](CC(C)C)C(=O)N2C[C@H](O)C[C@H]2C(=O)N[C@@H](Cc2c[nH]c3ccccc23)C(=O)N[C@@H](CO)C(=O)N[C@@H](Cc2cn(CC(=O)O)c3ccccc23)C(=O)N1C
7.00 to 8.00

* * *

- target.or.test.system: PD-L1 (Homo sapiens)
- Construct: hPDL1(19-239)-TVMV-His; made in house; host or cells: HEK293T
- assay.remarks: PD-1/PD-L1 Homogenous Time-Resolved Fluorescence (HTRF) binding assay (PD-1-Ig/PD-L1-His)
- details: inhibition of PD-1-Ig binding to PD-L1-TVMV-His; value given as range class; read-out: HTRF IC50
pIC50: −log10 of the molar value.
reported.endpoint: pIC50

{"columns": ["molecule", "pIC50"],
 "data": [
  ["CCCC[C@H]1C(=O)N(C)[C@@H](CCCC)C(=O)N[C@@H](CC(C)C)C(=O)C[C@H](C(=O)NCC(=O)N[C@@H](CC(=O)O)C(=O)NC[C@H](NC(=O)CCCCCCCCCCCCCCCCC(=O)O)C(=O)O)CSCC(=O)N[C@@H](Cc2ccc(O)cc2)C(=O)N(C)[C@@H](C)C(=O)N[C@@H](CC(N)=O)C(=O)N2CCC[C@H]2C(=O)N[C@@H](CN)C(=O)N[C@@H](CC(C)C)C(=O)N2C[C@H](O)C[C@H]2C(=O)N[C@@H](Cc2c[nH]c3ccccc23)C(=O)N[C@@H](CCN)C(=O)N[C@@H](Cc2cn(CC(=O)O)c3ccccc23)C(=O)N1C", "7.00 to 8.00"],
  ["CCCC[C@H]1C(=O)N(C)[C@@H](CCCC)C(=O)N[C@@H](CC(C)C)C(=O)N[C@H](C(=O)NCC(=O)N[C@@H](Cc2cn(CC[C@H](NC(=O)CCCCCCCCCCCCCCCCC(=O)O)C(=O)O)nn2)C(=O)O)CSCC(=O)N[C@@H](Cc2ccc(O)cc2)C(=O)N2CCCC[C@H]2C(=O)N[C@@H](CC(N)=O)C(=O)N2CCC[C@H]2C(=O)N[C@@H](CNC)C(=O)N[C@@H](CC(C)C)C(=O)N2C[C@H](O)C[C@H]2C(=O)N[C@@H](Cc2c[nH]c3ccccc23)C(=O)N[C@@H](CCN)C(=O)N[C@@H](Cc2cn(CC(=O)O)c3ccccc23)C(=O)N1C", "8.00 to 9.52"],
  ["CCCC[C@H]1C(=O)N(C)[C@@H](CCCC)C(=O)N[C@@H](CC(C)C)C(=O)N[C@H](C(=O)NCC(=O)N[C@@H](Cc2cn(CCCNC(=O)CCCCCCCCCCCCCCCCC(=O)O)nn2)C(=O)O)CSCC(=O)N[C@@H](Cc2ccc(O)cc2)C(=O)N(C)[C@@H](C)C(=O)N[C@@H](CC(N)=O)C(=O)N2CCC[C@H]2C(=O)N[C@@H](CN)C(=O)N[C@@H](CC(C)C)C(=O)N2C[C@H](O)C[C@H]2C(=O)N[C@@H](Cc2c[nH]c3ccccc23)C(=O)N[C@@H](CCN)C(=O)N[C@@H](Cc2cn(CC(=O)O)c3ccccc23)C(=O)N1C", "8.00 to 9.52"],
  ["CCCC[C@H]1C(=O)N(C)[C@@H](CCCC)C(=O)N[C@@H](CC(=O)O)C(=O)N[C@H](C(=O)N[C@@H](Cc2cn(CCC(NC(=O)CCCCCCCCCCCCCCCCC(=O)O)C(=O)O)nn2)C(=O)O)CSCC(=O)N[C@@H](Cc2ccc(O)cc2)C(=O)N(C)[C@@H](C)C(=O)N[C@@H](CC(N)=O)C(=O)N2CCC[C@H]2C(=O)N[C@@H](CN)C(=O)N[C@@H](CC(C)C)C(=O)N2C[C@H](O)C[C@H]2C(=O)N[C@@H](Cc2c[nH]c3ccccc23)C(=O)N[C@@H](CCN)C(=O)N[C@@H](Cc2cn(CC(=O)O)c3ccccc23)C(=O)N1C (some centres unmarked)", "7.00 to 8.00"],
  ["CCCC[C@H]1C(=O)N(C)[C@@H](CCCC)C(=O)N[C@@H](CCC(=O)O)C(=O)N[C@H](C(=O)NCC(=O)N[C@@H](Cc2cn(CC[C@H](NC(=O)CCCCCCCCCCCCCCCCC(=O)O)C(=O)O)nn2)C(=O)O)CSCC(=O)N[C@@H](Cc2ccc(O)cc2)C(=O)N(C)[C@@H](C)C(=O)N[C@@H](CC(N)=O)C(=O)N2CCC[C@H]2C(=O)N[C@@H](CN)C(=O)N[C@@H](CC(C)C)C(=O)N2C[C@H](O)C[C@H]2C(=O)N[C@@H](Cc2c[nH]c3ccccc23)C(=O)N[C@@H](CCN)C(=O)N[C@@H](Cc2cn(CC(=O)O)c3ccccc23)C(=O)N1C", "7.00 to 8.00"]
]}

Missing value: pIC50, PD-L1 (Homo sapiens), entry CCCC[C@H]1C(=O)N2CCC[C@@H]2C(=O)N[C@@H](CC(=O)O)C(=O)N[C@@H](C(C)C)C(=O)N(C)[C@@H](Cc2ccccc2)C(=O)N[C@@H](CCCN)C(=O)N2CCC[C@@H]2C(=O)N[C@@H](Cc2c[nH]c3ccccc23)C(=O)N[C@@H](Cc2ccc(O)cc2)C(=O)N[C@@H](CC(C)C)C(=O)N[C@H](C(=O)NCC(=O)N[C@@H](Cc2cn(CC[C@H](NC(=O)CCCCCCCCCCCCCCC(=O)O)C(=O)O)nn2)C(N)=O)CSCC(=O)N[C@@H](Cc2cc(F)c(F)c(F)c2)C(=O)N(C)[C@@H](Cc2ccccc2)C(=O)N1C . Fill in?
7.00 to 8.00

// fetch PD-L1 (Homo sapiens) pIC50 for CCCC[C@H]1C(=O)N(C)[C@@H](CCCC)C(=O)N[C@@H](CCCNC(=N)N)C(=O)N[C@H](C(=O)NCC(=O)N[C@@H](CCn2cc(CNC(=O)COCCOCCOC)nn2)C(N)=O)CSCC(=O)N[C@@H](Cc2ccc(O)cc2)C(=O)N(C)[C@@H](C)C(=O)N[C@@H](CC(N)=O)C(=O)N2CCC[C@H]2C(=O)N[C@@H](CN)C(=O)N[C@@H](CC(C)C)C(=O)N2C[C@H](O)C[C@H]2C(=O)N[C@@H](Cc2c[nH]c3ccccc23)C(=O)N[C@@H](CO)C(=O)N[C@@H](Cc2csc3ccccc23)C(=O)N1C
7.00 to 8.00

Lab note: need pIC50 with PD-L1 (Homo sapiens) for entry CCCCCCCCCCCCCCCCNC(=O)[C@H](CC(=O)O)NC(=O)CCCCCCCCCCNC(=O)[C@@H]1CSCC(=O)N[C@@H](Cc2ccc(O)cc2)C(=O)N(C)[C@@H](C)C(=O)N[C@@H](CC(N)=O)C(=O)N2CCC[C@H]2C(=O)N[C@@H](Cc2cnc[nH]2)C(=O)N[C@@H](CC(C)C)C(=O)N2C[C@H](O)C[C@H]2C(=O)N[C@@H](Cc2c[nH]c3ccccc23)C(=O)N[C@@H](CO)C(=O)N[C@@H](Cc2c[nH]c3ccccc23)C(=O)N(C)[C@@H](CCCC)C(=O)N(C)[C@@H](CCCC)C(=O)N[C@@H](CCCNC(=N)N)C(=O)N1 , please look it up.
5.80 to 7.00
